# assayed.target: T1, human angiopoietin-2 (human, UniProt O15123 19-496, limits assumed)
# T1 sequence (looked up): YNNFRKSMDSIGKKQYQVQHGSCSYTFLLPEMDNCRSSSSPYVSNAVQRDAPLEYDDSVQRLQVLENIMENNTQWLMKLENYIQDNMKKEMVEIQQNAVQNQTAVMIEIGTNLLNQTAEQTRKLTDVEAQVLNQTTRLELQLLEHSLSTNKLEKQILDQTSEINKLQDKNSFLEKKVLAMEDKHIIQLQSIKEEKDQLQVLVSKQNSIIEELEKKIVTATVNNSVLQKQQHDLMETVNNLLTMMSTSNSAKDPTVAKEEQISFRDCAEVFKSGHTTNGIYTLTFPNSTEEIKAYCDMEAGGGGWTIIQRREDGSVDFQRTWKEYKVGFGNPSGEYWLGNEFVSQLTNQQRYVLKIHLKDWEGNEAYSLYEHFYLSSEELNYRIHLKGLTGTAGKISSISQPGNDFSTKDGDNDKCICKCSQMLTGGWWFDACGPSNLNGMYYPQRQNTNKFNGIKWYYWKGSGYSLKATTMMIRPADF
# method.notes: cell-based or functional assay
reported.property: IC50 mean, LEC proliferation assay (CellTiter-Glo) (nM)

[
  {
    "binder": "hNGAL lipocalin mutein SEQ ID NO: 3 (designed binder, Mutein of mature hNGAL) QDSTSDLIPAPPLSKVPLQQNFQDNQFHGKWYVVGVAGNWYLREDKDPIKMTATIYELKEDKSYNVTQVGFEQKKCKYSIHTFVPGSQPGEFTLGDIKSWPGDTSLLVRVVSTNYNQHAMVFFKGVMQNREVFAITLYGRTKELTSELKENFIRFSKSLGLPENHIVFPVPIDQCIDGSAWSHPQFEK",
    "result.value": 2.81
  },
  {
    "binder": "hNGAL lipocalin mutein SEQ ID NO: 8 (designed binder, Mutein of mature hNGAL; Biotinylated with NHS-PEG4-Biotin for the SPR assay) QDSTSDLIPAPPLSKVPLQQNFQDNQFHGKWYVVGQAGNYILREDKDPGKMWATIYELKEDKSYDVTEVSFGAKKCNYRIWTFVPGSQPGEFTLGGIKSDPGGTSTLVRVVSTNYNQHAMVFFKHVLQNREFFEITLYGRTKELTSELKENFIRFSKSLGLPENHIVFPVPIDQCIDGSAWSHPQFEK",
    "result.value": 0.078
  }
]
